Molecular target: human 5-HT2A receptor (Homo sapiens)
Construct: expressed in transfected cells; host or cells: CHO (CHO-5-HT2A cell line)
Sequence (P28223 whole entry): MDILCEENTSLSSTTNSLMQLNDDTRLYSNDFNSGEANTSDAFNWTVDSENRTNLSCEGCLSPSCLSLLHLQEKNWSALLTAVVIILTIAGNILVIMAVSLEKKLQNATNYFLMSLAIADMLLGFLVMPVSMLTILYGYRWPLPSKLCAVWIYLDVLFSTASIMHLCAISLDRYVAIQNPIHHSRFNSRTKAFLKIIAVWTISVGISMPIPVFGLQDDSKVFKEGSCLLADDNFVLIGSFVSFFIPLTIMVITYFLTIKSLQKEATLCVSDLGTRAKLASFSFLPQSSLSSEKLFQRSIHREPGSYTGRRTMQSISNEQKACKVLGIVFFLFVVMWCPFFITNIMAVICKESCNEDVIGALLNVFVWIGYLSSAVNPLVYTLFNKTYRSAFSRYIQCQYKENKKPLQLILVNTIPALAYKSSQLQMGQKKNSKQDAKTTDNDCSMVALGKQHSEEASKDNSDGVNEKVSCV
Assay: Ca2+ mobilization in CHO h5-HT2A cells
Type: cell-based
Details: from EC50 values, Table 2
Decision: Selectivity 5-HT2A/2C (functional) >= 0.07 yields Y, all other cases yield N.

Solved cases below.
[
  {
    "compound": "COc1ccc2[nH]cc(CCNCc3ccccc3Br)c2c1",
    "category.label": "Y"
  },
  {
    "compound": "COc1ccccc1CNCCc1c[nH]c2ccccc12",
    "category.label": "N"
  },
  {
    "compound": "Oc1c(Br)cccc1CNCCc1c[nH]c2ccccc12",
    "category.label": "N"
  },
  {
    "compound": "Clc1ccccc1CNCCc1c[nH]c2ccccc12",
    "category.label": "Y"
  },
  {
    "compound": "Fc1cccc(CNCCc2c[nH]c3ccccc23)c1",
    "category.label": "Y"
  }
]

Query string: Quick check: does Oc1cccc(Br)c1CNCCc1c[nH]c2ccccc12 have Selectivity 5-HT2A/2C (functional) greater than or equal to 0.07?
Result string: Y

Query string: Hi team, for Oc1c(F)cccc1CNCCc1c[nH]c2ccccc12 , is the recorded Selectivity 5-HT2A/2C (functional) at or above 0.07?
Result string: Y

Query string: Would you say Brc1ccccc1CNCCc1c[nH]c2ccccc12 shows Selectivity 5-HT2A/2C (functional) at minimum 0.07?
Result string: Y

Query string: Is Selectivity 5-HT2A/2C (functional) for COc1ccc(O)c(CNCCc2c[nH]c3ccc(OC)cc23)c1 at or above 0.07?
Result string: Y

Query string: Dear colleague, could you confirm whether Clc1ccc(CNCCc2c[nH]c3ccccc23)cc1 has Selectivity 5-HT2A/2C (functional) at or above 0.07?
Result string: Y

Query string: Textbook exercise: given the entry COc1ccc(CNCCc2c[nH]c3ccccc23)cc1OC , state whether its Selectivity 5-HT2A/2C (functional) is greater than or equal to 0.07.
Result string: N

Query string: Quick check: does Brc1cccc(CNCCc2c[nH]c3ccccc23)c1 have Selectivity 5-HT2A/2C (functional) greater than or equal to 0.07?
Result string: Y

Query string: Confirm if Selectivity 5-HT2A/2C (functional) reported for the compound Oc1ccccc1CNCCc1c[nH]c2ccccc12 is 0.07 or above.
Result string: Y

Query string: Can CCOc1ccc(CNCCc2c[nH]c3ccccc23)cc1 be said to have Selectivity 5-HT2A/2C (functional) at or above 0.07?
Result string: N

Query string: Is Selectivity 5-HT2A/2C (functional) at least 0.07? Consider Clc1cccc(CNCCc2c[nH]c3ccccc23)c1
Result string: Y

Query string: Can c1ccc(CNCCc2c[nH]c3ccccc23)cc1 [Compound 1, N-Benzyl-[2-(1H-indol-3-yl)ethyl]amine] be said to have Selectivity 5-HT2A/2C (functional) at or above 0.07?
Result string: Y

Query string: Determine whether measured Selectivity 5-HT2A/2C (functional) meets or exceeds 0.07 for COc1ccc2[nH]cc(CCNCc3ccccc3Cl)c2c1
Result string: Y

Query string: Determine whether measured Selectivity 5-HT2A/2C (functional) meets or exceeds 0.07 for COc1ccc(OC)c(CNCCc2c[nH]c3ccccc23)c1
Result string: N

Query string: Does the reported Selectivity 5-HT2A/2C (functional) for COc1cccc(CNCCc2c[nH]c3ccccc23)c1O fall at or above the 0.07 mark?
Result string: Y
